The values you see were collected from paper PMC10397247.

Target: T1, 4H3627-AA
T1 chain: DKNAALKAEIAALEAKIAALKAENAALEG
Test: two-hybrid library CCmax;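 note: natural log of median RNA to DNA barcode read ratio; higher means stronger binding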
Settings: mean of both orientations
outcome-measure: interaction score

Some solved entries appear below for comparison.
binder	assay-value
DKIAALEAKIAALKAENAALKAEIAALEG [4H2393-AA]	-1.42
DKNAALEAKIAALKAKIAALEAENAALEG [4H3427-AA]	-0.773
DEIAALEAKIAALEAKNAALKAKIAALEG [4H317-AA]	-0.771
DENAALEAKIAALKAEIAALEAKNAALKG [4H1352-AA]	2.33

I. DENAALKAKIAALKAEIAALKAENAALEG [4H1867-AA]
II. DENAALEAEIAALKAKIAALKAKNAALEG [4H1135-AA]
Task: Name the one with the greater interaction score value, either I or II as given. State the label of the item chosen.
Output: I
